Assay: Rat brain disposition after oral gavage
Type: in vivo, male Sprague-Dawley rats
Settings: male, Sprague-Dawley, brain, oral 5 mg/kg, 1 h, mean ± stdev, n=3
Experimental: Brain disposition was evaluated in male Sprague-Dawley rats (n=3, standard body weight). Briefly, test compound was formulated as a simple suspension (0.5% HPMC in water) then administered by oral gavage (10 mg/kg, 10 mL/kg or 5 mg/kg, 10 mL/kg). […] Diluted extracts were analyzed by liquid-chromatography coupled with tandem mass spectrometry detection (LC-MS/MS) using a bioanalytical method. […]
Quick rule for you: Kp uu at 1 h at 1 or higher means yes (1), lower means no (0).

Take a look at these entries with their results.
COc1nccc(C)c1-n1nc2c(c1C)Nc1ncc3c(Cl)nn(c3n1)CCCO2: no (0)
COc1ncc(F)cc1-n1nc2c(c1C)Nc1ncc3c(Cl)nn(c3n1)CCCO2: yes (1)
Cc1c2c(nn1-c1cccnc1OC(F)F)OCCCn1nc(Cl)c3cnc(nc31)N2: no (0)
Cc1cnc(C)c(-n2nc3c(c2C)Nc2ncc4c(Cl)nn(c4n2)CCCO3)c1: no (0)
CCc1c2c(nn1-c1cccnc1C)OCCCn1nc(Cl)c3cnc(nc31)N2: no (0)

Attention now turns to another entry.
State whether the measured Kp uu at 1 h reaches 1, counting equality as reaching it, for `Cc1nc(C)c(-n2nc3c(c2C)Nc2ncc4c(Cl)nn(c4n2)CCCO3)cc1F` no (0)

Data provenance is patent US11958865B1.
